All figures here come from patent US5622955A.

# Test system: poly dA.dT
# method.notes: DNA binding: increase in thermal melting of poly dA.dT
Structures can show the parent of a compound that is named as a salt.
property.name: DNA binding (Increase in thermal melting of poly dA.dT)
Give a plain numeric answer without units written out.

                                   molecule  readout_value
0  c1cc(-c2ccc(C3=NCCCN3)cc2)nc(-c2ccc(C3=NCCCN3)cc2)n1 [Compound 3, hydrochloride]             25
1  N=C(N)c1ccc(OCCCCCOc2ccc(C(=N)N)cc2)cc1 [Pentamidine, reference compound]           12.8
2  Cl.N=C(N)c1ccc(-c2ccnc(-c3ccc(C(=N)N)cc3)n2)cc1 [Compound 1]           21.5

Continue with the molecule presented below.
I'm curious: which DNA binding (Increase in thermal melting of poly dA.dT) was measured for COc1cc(C(=N)NC(C)C)ccc1-c1ccnc(-c2ccc(C(=N)NC(C)C)cc2)n1 [Compound 5] tested on poly dA.dT?
13.9
